Quick reference: relative viability of the listed items.
# System: SK-LU-1
# assay.comment: relative viability (nuclei count vs DMSO), 5 days (fraction); higher = more cells survive
# protocol.conditions: first compound 8 µM

compound: O=c1[nH]c2ccccc2n1C1CCN(CCCC(c2ccc(F)cc2)c2ccc(F)cc2)CC1 [Pimozide] + COc1cc2c(Oc3ccc(NC(=O)C4(C(=O)Nc5ccc(F)cc5)CC4)cc3F)ccnc2cc1OCCCN1CCOCC1 [Foretinib] (partner 0.25 µM)
relative viability: 0.637
--
compound: O=c1[nH]c2ccccc2n1C1CCN(CCCC(c2ccc(F)cc2)c2ccc(F)cc2)CC1 [Pimozide] + Cc1nc(NC(=O)N2CCC[C@H]2C(N)=O)sc1-c1ccnc(C(C)(C)C(F)(F)F)c1 [Alpelisib] (partner 2 µM)
relative viability: 0.649
--
compound: O=c1[nH]c2ccccc2n1C1CCN(CCCC(c2ccc(F)cc2)c2ccc(F)cc2)CC1 [Pimozide] + CS(=O)(=O)N1CCN(Cc2cc3nc(-c4cccc5[nH]ncc45)nc(N4CCOCC4)c3s2)CC1 [Pictilisib] (partner 1 µM)
relative viability: 0.469

###

# System: NCI-H727
# assay.comment: relative viability (nuclei count vs DMSO), 5 days (fraction); higher = more cells survive
# protocol.conditions: first compound 50 µM
Quick reference: relative viability of the listed items.
observed.property: relative viability

compound: O=C(O)CCCCC(CCSCc1ccccc1)SCc1ccccc1 (stereo not drawn) [CPI-613] + Cc1nc(Nc2ncc(C(=O)Nc3c(C)cccc3Cl)s2)cc(N2CCN(CCO)CC2)n1 [Dasatinib] (partner 0.075 µM)
obs.value: 0.329
--
compound: O=C(O)CCCCC(CCSCc1ccccc1)SCc1ccccc1 (stereo not drawn) [CPI-613] + NC(=O)Nc1cc(-c2cccc(F)c2)sc1C(=O)N[C@H]1CCCNC1 [AZD7762] (partner 0.2 µM)
obs.value: 0.669
--
compound: O=C(O)CCCCC(CCSCc1ccccc1)SCc1ccccc1 (stereo not drawn) [CPI-613] + N=C(N)NC(=N)NCCc1ccccc1 [Phenformin] (partner 250 µM)
obs.value: 0.62

###

# System: NCI-H1395
# assay.comment: relative viability (nuclei count vs DMSO), 5 days (fraction); higher = more cells survive
# protocol.conditions: first compound 0.5 µM

compound: COc1cc2nccc(Oc3ccc(NC(=O)Nc4cc(C)on4)c(Cl)c3)c2cc1OC [Tivozanib] + Cc1cc(Nc2cc(N3CCN(C)CC3)nc(Sc3ccc(NC(=O)C4CC4)cc3)n2)n[nH]1 [Tozasertib] (partner 0.1 µM)
relative viability: 0.807
//
compound: Nc1ccn([C@@H]2O[C@H](CO)[C@@H](O)[C@@H]2O)c(=O)n1 [Cytarabine] + N=C(N)NC(=N)NCCc1ccccc1 [Phenformin] (partner 250 µM)
relative viability: 0.31
//
compound: COc1cc2nccc(Oc3ccc(NC(=O)Nc4cc(C)on4)c(Cl)c3)c2cc1OC [Tivozanib] + O=C(CCCCCCC(=O)Nc1ccccc1)NO [Vorinostat] (partner 1 µM)
relative viability: 0.424
//
compound: Nc1ccn([C@@H]2O[C@H](CO)[C@@H](O)[C@@H]2O)c(=O)n1 [Cytarabine] + NC(=O)Nc1cc(-c2cccc(F)c2)sc1C(=O)N[C@H]1CCCNC1 [AZD7762] (partner 0.2 µM)
relative viability: 0.351
//
compound: Nc1ccn([C@@H]2O[C@H](CO)[C@@H](O)[C@@H]2O)c(=O)n1 [Cytarabine] + Cc1nc(NC(=O)N2CCC[C@H]2C(N)=O)sc1-c1ccnc(C(C)(C)C(F)(F)F)c1 [Alpelisib] (partner 2 µM)
relative viability: 0.441
